Reference for the values: patent US11254668B2

Assay Target: JAK3 (Homo sapiens (Human), UniProt P52333)
Sequence (P52333 822-1111): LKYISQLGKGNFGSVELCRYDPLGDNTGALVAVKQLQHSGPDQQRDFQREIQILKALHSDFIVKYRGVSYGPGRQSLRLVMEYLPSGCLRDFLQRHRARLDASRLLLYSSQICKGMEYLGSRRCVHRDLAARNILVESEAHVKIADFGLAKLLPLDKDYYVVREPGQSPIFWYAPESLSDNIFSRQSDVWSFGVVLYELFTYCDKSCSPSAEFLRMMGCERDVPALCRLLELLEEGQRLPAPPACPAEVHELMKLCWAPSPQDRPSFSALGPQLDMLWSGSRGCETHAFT
Assay Summary: JAK Caliper Enzyme Assay at 1 mM ATP, JAK3
Format: biochemical
Result Type: IC50

Compound: Cc1ccc(-c2cc3ncccc3c(-c3ccn(C4(CC#N)CN(S(C)(=O)=O)C4)n3)n2)cn1
Assay Target: JAK3 (Homo sapiens (Human), UniProt P52333)
Value Observed: > 10 µM

Compound: CS(=O)(=O)N1CC(CC#N)(n2ccc(-c3nc(-c4ccn[nH]4)cc4ncccc34)n2)C1
Assay Target: JAK3 (Homo sapiens (Human), UniProt P52333)
Value Observed: > 10 µM

Compound: Cc1cc(-c2cc(-c3cc[nH]n3)cc3ncccc23)nn1C1(CC#N)CN(S(C)(=O)=O)C1
Assay Target: JAK3 (Homo sapiens (Human), UniProt P52333)
Value Observed: > 10 µM

Compound: Cn1cc(-c2cc3ncccc3c(-c3ccn(C4(CC#N)CN(S(C)(=O)=O)C4)n3)n2)c(N)n1
Assay Target: JAK3 (Homo sapiens (Human), UniProt P52333)
Value Observed: 3.19 µM

Compound: CO[C@H]1C[C@@](CC#N)(n2ccc(-c3nc(-c4cn[nH]c4)cc4ncccc34)n2)C1
Assay Target: JAK3 (Homo sapiens (Human), UniProt P52333)
Value Observed: > 10 µM

Compound: CNc1cc(-c2cc3ncccc3c(-c3ccn([C@]4(CC#N)C[C@H](C#N)C4)n3)n2)nn1C
Assay Target: JAK3 (Homo sapiens (Human), UniProt P52333)
Value Observed: > 10 µM

Compound: N#CCC1(n2cc(-c3nc(-c4cn[nH]c4)cc4ncccc34)cn2)CN(CC(F)(F)F)C1
Assay Target: JAK3 (Homo sapiens (Human), UniProt P52333)
Value Observed: 7.14 µM

Compound: C[C@]1(C#N)C[C@](CC#N)(n2ncc(-c3cc(-c4c[nH]nc4N)cc4ncccc34)n2)C1
Assay Target: JAK3 (Homo sapiens (Human), UniProt P52333)
Value Observed: > 10 µM

Compound: COc1cc(-c2cc3ncccc3c(-c3ccn(C4(CC#N)CN(S(C)(=O)=O)C4)n3)n2)ccn1
Assay Target: JAK3 (Homo sapiens (Human), UniProt P52333)
Value Observed: > 10 µM

Compound: C[C@]1(C#N)C[C@@](CC#N)(n2ccc(-c3nc(-c4cc[nH]n4)cc4ncccc34)n2)C1
Assay Target: JAK3 (Homo sapiens (Human), UniProt P52333)
Value Observed: > 10 µM

Compound: CO[C@H]1C[C@](CC#N)(n2ccc(-c3nc(-c4cc(CO)n[nH]4)cc4ncccc34)n2)C1
Assay Target: JAK3 (Homo sapiens (Human), UniProt P52333)
Value Observed: > 10 µM

Compound: Cc1n[nH]cc1-c1cc2ncccc2c(-c2ccn([C@]3(CC#N)C[C@H](C#N)C3)n2)n1
Assay Target: JAK3 (Homo sapiens (Human), UniProt P52333)
Value Observed: > 10 µM

Compound: Cn1cc(-c2cc3ncccc3c(-c3ccn(C4(CC#N)CN(S(N)(=O)=O)C4)n3)n2)cn1
Assay Target: JAK3 (Homo sapiens (Human), UniProt P52333)
Value Observed: 1.59 µM

Compound: CS(=O)(=O)N1CC(CC#N)(n2ccc(-c3nc(-c4ccccc4F)cc4ncccc34)n2)C1
Assay Target: JAK3 (Homo sapiens (Human), UniProt P52333)
Value Observed: > 10 µM

Compound: Cn1ncc(-c2cc3ncccc3c(-c3ccn(C4(CC#N)CN(S(C)(=O)=O)C4)n3)n2)c1C(N)=O
Assay Target: JAK3 (Homo sapiens (Human), UniProt P52333)
Value Observed: > 10 µM

Compound: N#CC[C@]1(n2ccc(-c3nc(-c4ccnc(C(N)=O)n4)cc4ncccc34)n2)C[C@H](C#N)C1 [Example 243]
Assay Target: JAK3 (Homo sapiens (Human), UniProt P52333)
Value Observed: > 10 µM

Compound: N#CC[C@]1(n2ccc(-c3nc(-c4cccc(C(N)=O)n4)cc4ncccc34)n2)C[C@H](C#N)C1
Assay Target: JAK3 (Homo sapiens (Human), UniProt P52333)
Value Observed: > 10 µM

Compound: Cn1nccc1-c1cc(-c2cnn(C3(CC#N)CN(S(C)(=O)=O)C3)n2)c2cccnc2c1
Assay Target: JAK3 (Homo sapiens (Human), UniProt P52333)
Value Observed: > 10 µM

Compound: Cc1cc(-c2cc3ncccc3c(-c3ccn(C4(CC#N)CN(CC(F)(F)F)C4)n3)n2)ccn1
Assay Target: JAK3 (Homo sapiens (Human), UniProt P52333)
Value Observed: > 10 µM

Compound: Cc1cn([C@]2(CC#N)C[C@@H](C#N)C2)nc1-c1nc(-c2cn[nH]c2N)cc2ncccc12
Assay Target: JAK3 (Homo sapiens (Human), UniProt P52333)
Value Observed: > 10 µM

Compound: C[C@]1(C#N)C[C@](CC#N)(n2ccc(-c3nc(-c4cn[nH]c4)cc4ncccc34)n2)C1
Assay Target: JAK3 (Homo sapiens (Human), UniProt P52333)
Value Observed: > 10 µM

Compound: C[C@]1(C#N)C[C@@](CC#N)(n2ccc(-c3nc(-c4ccnc(N)c4)cc4ncccc34)n2)C1
Assay Target: JAK3 (Homo sapiens (Human), UniProt P52333)
Value Observed: > 10 µM

Compound: Cn1cc(-c2cc3ncccc3c(-c3ccn([C@]4(CC#N)C[C@@H](C#N)C4)n3)n2)c(CO)n1
Assay Target: JAK3 (Homo sapiens (Human), UniProt P52333)
Value Observed: 2.02 µM

Compound: CS(=O)(=O)N1CC(CC#N)(n2ccc(-c3nc(-c4cnn(C(CO)CCl)c4)cc4ncccc34)n2)C1 (stereo not drawn)
Assay Target: JAK3 (Homo sapiens (Human), UniProt P52333)
Value Observed: 9.52 µM

Compound: CS(=O)(=O)N1CC(CC#N)(n2ccc(-c3nc(-c4cnc5nccn5c4)cc4ncccc34)n2)C1
Assay Target: JAK3 (Homo sapiens (Human), UniProt P52333)
Value Observed: > 10 µM

Compound: CO[C@H]1C[C@](CC#N)(n2ccc(-c3nc(-c4cn[nH]c4)cc4ncccc34)n2)C1
Assay Target: JAK3 (Homo sapiens (Human), UniProt P52333)
Value Observed: > 10 µM

Compound: N#CC[C@]1(n2ccc(-c3nc(-c4ccc(S(N)(=O)=O)nc4)cc4ncccc34)n2)C[C@H](C#N)C1 [Example 211]
Assay Target: JAK3 (Homo sapiens (Human), UniProt P52333)
Value Observed: 9.82 µM

Compound: N#CC[C@]1(n2cc(-c3nc(-c4cnn(CCO)c4)cc4ncccc34)cn2)C[C@@H](C#N)C1
Assay Target: JAK3 (Homo sapiens (Human), UniProt P52333)
Value Observed: 1.12 µM

Compound: CC(C)(O)[C@H]1C[C@@](CC#N)(n2ccc(-c3nc(-c4cn[nH]c4)cc4ncccc34)n2)C1
Assay Target: JAK3 (Homo sapiens (Human), UniProt P52333)
Value Observed: > 10 µM

Compound: Cn1cc(-c2cc(-c3cnn(C4(CC#N)CN(S(C)(=O)=O)C4)n3)c3cccnc3c2)cn1
Assay Target: JAK3 (Homo sapiens (Human), UniProt P52333)
Value Observed: > 10 µM
